Sourced from PubChem BioAssay (NCATS)

Give Potency for every item shown.
# assayInfo: Cellular viability qHTS for adrenocortical cancer (ACC) cell line SW-13 (AID 1963989); further: potency means the concentration at half of the fitted maximal effect; nearly all actives have a fitted effect of over 65% in size
# studyConditions: SW-13 ACC cells viability, CellTiter-Glo, 48 h
Results filed as inconclusive are left out. Activity calls are given as the source filed them. The call rests on the fitted dose curve; in most records, active means well fitted cell-killing curve with a large enough effect; inconclusive means small, poorly fitted or top-dose-only effect; inactive means flat fitted curve, though single readings scatter.

# compound, testResult
data = [
    ("CC(C)CC(=O)Nc1n[nH]c2c1CN(C(=O)C1CCN(C)CC1)C2(C)C", "3.98 µM (active)"),
]

Please state, for each entry, its recorded Potency.
1. COc1cc(N2CCC(N3CCN(C)CC3)CC2)ccc1Nc1ncc(Cl)c(Nc2ccccc2S(=O)(=O)C(C)C)n1
2. CCCSc1ccc2nc(NC(=O)OC)[nH]c2c1
3. C[n+]1c2cc(N)ccc2cc2ccc(N)cc21 (tested in a mixture with another compound)
4. CN1CCN(CCOc2cc(OC3CCOCC3)c3c(Nc4c(Cl)ccc5c4OCO5)ncnc3c2)CC1
5. CCCCN(CCCC)CCC(O)c1cc2c(Cl)cc(Cl)cc2c2cc(C(F)(F)F)ccc12 (configuration not stated)

*A*
1. 5.01 µM (active)
2. 0.366 µM (active)
3. 2.31 µM (active)
4. 3.98 µM (active)
5. 5.8 µM (active)

*Q* Name the reported Potency value associated with the compound CN(C)C/C=C/C(=O)Nc1cccc(C(=O)Nc2cccc(Nc3ncc(Cl)c(-c4c[nH]c5ccccc45)n3)c2)c1
*A* 0.316 µM (active)
